Please provide measured pKd for the entries that follow.
Biological target: Human C5 (Homo sapiens, UniProt P01031)
Construct: purchased Complement Technology
Sequence (P01031 19-1676): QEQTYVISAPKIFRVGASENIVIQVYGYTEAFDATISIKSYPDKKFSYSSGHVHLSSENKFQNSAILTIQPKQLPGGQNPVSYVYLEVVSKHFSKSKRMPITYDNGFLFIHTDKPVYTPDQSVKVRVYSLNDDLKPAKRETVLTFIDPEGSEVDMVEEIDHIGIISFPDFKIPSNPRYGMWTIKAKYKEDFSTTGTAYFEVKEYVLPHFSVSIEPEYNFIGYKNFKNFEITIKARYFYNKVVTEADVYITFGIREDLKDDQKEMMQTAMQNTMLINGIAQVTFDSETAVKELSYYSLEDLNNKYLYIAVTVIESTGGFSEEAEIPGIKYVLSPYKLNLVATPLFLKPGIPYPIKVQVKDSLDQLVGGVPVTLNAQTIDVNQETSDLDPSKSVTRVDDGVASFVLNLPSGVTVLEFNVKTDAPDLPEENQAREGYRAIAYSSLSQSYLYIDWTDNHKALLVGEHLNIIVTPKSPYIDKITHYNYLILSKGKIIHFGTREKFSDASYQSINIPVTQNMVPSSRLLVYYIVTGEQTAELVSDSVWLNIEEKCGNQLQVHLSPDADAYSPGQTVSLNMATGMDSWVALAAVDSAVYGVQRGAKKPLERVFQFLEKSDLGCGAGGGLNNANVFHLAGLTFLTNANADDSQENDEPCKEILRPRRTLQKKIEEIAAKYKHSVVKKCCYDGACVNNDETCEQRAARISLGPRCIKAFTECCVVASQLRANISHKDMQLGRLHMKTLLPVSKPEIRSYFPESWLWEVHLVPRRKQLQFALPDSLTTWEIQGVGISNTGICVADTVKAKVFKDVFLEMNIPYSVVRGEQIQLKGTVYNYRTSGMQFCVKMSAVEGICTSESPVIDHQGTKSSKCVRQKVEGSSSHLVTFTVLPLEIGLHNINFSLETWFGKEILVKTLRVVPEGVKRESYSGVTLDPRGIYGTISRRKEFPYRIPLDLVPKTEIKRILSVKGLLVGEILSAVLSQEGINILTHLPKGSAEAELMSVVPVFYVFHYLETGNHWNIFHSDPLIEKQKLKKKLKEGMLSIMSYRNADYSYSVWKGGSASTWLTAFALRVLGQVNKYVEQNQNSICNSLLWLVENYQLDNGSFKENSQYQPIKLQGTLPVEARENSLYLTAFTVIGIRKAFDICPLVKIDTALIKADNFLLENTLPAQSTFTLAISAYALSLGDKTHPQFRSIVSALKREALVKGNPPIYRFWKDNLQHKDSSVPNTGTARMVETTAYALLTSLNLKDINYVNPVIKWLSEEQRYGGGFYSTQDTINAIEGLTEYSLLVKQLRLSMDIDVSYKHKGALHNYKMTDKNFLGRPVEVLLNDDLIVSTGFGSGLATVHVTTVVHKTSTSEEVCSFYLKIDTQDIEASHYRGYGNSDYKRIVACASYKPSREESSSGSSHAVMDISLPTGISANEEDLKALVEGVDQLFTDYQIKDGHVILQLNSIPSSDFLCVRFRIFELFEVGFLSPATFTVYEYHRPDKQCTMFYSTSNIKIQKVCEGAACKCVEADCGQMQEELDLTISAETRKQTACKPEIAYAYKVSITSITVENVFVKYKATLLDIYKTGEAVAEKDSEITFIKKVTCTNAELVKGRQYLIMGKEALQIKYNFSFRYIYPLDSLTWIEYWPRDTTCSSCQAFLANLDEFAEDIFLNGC
Assay: Surface plasmon resonance (SPR), compounds on immobilized human C5 (Example 2, Table 5)
Format: binding
Conditions: lowest value where a range of compound concentrations were analyzed
Reminder that pKd is minus the log10 of a molar concentration.

Which pKd value is on record for `COc1ccc([C@H](CO)NC(=O)Nc2ccc(OC)c(OCCCC(C)C)c2)cc1` ? 7.35

Query `COc1ccc(NC(=O)N[C@H](CCO)c2ccccc2)cc1OCCCC(C)C` next 5.09

Query COc1ccc(NC(=O)NC(CN(C)C)c2ccccc2)cc1OCCCC(C)C (stereo not drawn) next 5.02

Query `COc1ccc(NC(=O)N[C@@H](COC(N)=O)c2ccccc2)cc1OCCCC(C)C` next 5.59

Query COc1ccc(NC(=O)NC(CO)c2ccccc2O)cc1OCCCC(C)C (stereo not drawn) next 7.31

Query COc1ccc(NC(=O)NC(CCO)c2ccccc2)cc1OCCCC(C)C (stereo not drawn) next 5.18

Query COc1ccc(NC(=O)NC(CO)c2ccco2)cc1OCCCC(C)C (stereo not drawn) next 7.60

Query `COc1ccc(NC(=O)N[C@@H](CO)c2ccccc2)cc1OCCCC(C)C` next 6.80

Query `COc1ccc(NC(=O)NCc2ccc3[nH]ccc3c2)cc1OCCCC(C)C` next 7.08

----------
Please provide measured IC50 for the entries that follow.
Biological target: Human C5 (Homo sapiens, UniProt P01031)
Construct: purchased Complement Technology
Assay: Red blood cell (RBC) hemolysis assay, luminescent (Example 13, Table 22); note: 1.5% C5-depleted human serum
Format: cell-based
Conditions: sheep EA cells, […] C5-depleted human serum, 0.5 nM human C5, 1 hour 37° C., luminescence
Give just the numeric value; nM need not be written.

Which IC50 value is on record for `CCCCCOc1cc(N2CCCN(Cc3ccc(CCOCCN4CCCC4)cc3OC)C2=O)ccc1OC` ? 413

Query `CCCCCOc1cc(N2CCCN(Cc3ccc(CNC(=O)OCC)cc3OC)C2=O)ccc1OC` next 19.1

Query `CCCCCOc1cc(N2CCCN(Cc3cccc(-c4cnn(C5COC5)c4)c3F)C2=O)ccc1OC` next 52

Query `CCCCCOc1cc(N2CCCN(Cc3cccc(N4CCN(C5COC5)CC4)c3F)C2=O)ccc1OC` next 147

Query `COc1ccc(F)cc1CN1CCCN(c2ccc(OC)c(OCCc3cccc(C(F)(F)F)c3)c2)C1=O` next 254

Query `CCCCCOc1cc(N2CCCN(Cc3cccc(F)c3Cl)C2=O)ccc1OC` next 128

Query `COc1ccc(F)cc1CN1CCCN(c2ccc(OC)c(OCCCC(F)(F)C(F)(F)F)c2)C1=O` next 49

Query `CCCCCOc1cc(N2CCN(Cc3ccc(C(C)(C)O)cc3OC)C2=O)ccc1OC` next 12.1

----------
Please provide measured solubility kinetic for the entries that follow.
Assay: Kinetic solubility in PBS pH 7.4, HPLC-UV (Example 21, Table 27)
Format: physicochemical
Details: phosphate buffered saline, aqueous buffer, kinetic from dmso stock, 0.5 M PBS, shaken minimum 24 h at approximately 25° C., HPLC-UV 270 nm
Give just the numeric value; µM need not be written.

Which solubility kinetic value is on record for `CCCCCOc1cc(N2CCCN(Cc3cccc4c3c(C)cn4CC(=O)N(C)C)C2=O)ccc1OC` ? 64

Query CCCCCOc1cc(N2CC(CO)CN(Cc3ccc(CC(=O)N4CCNC(=O)C4)cc3OC)C2=O)ccc1OC (stereo not drawn) next 443

Query `CCCCCOc1cc(N2CC[C@H](C)N(Cc3cccc4c3c(Cl)cn4CC(=O)N(C)C)C2=O)ccc1OC` next 13

----------
Please provide measured log10 IC50 for the entries that follow.
Target: purified human C5 (Homo sapiens, UniProt P01031)
Test: Red blood cell (RBC) hemolysis assay, optical, absorbance 412 nm (Example 10, Table 19)
Type: cell-based
Conditions: antibody-sensitized sheep erythrocytes, […] human C5 depleted sera, 0.5 nM purified human C5, absorbance 412 nm; read-out: RBC Hemolysis IC50
Annotation: log10 of IC50, nM basis.

GET /values?readout=log10 IC50&system=purified human C5 (Homo sapiens, UniProt P01031)&item= `COc1ccc(NC(=O)NCc2ccnc(NCCN(C)C)c2)cc1OCCCC(C)C` 3.12

Query `COc1ccc(NC(=O)NCc2cccc(C(=N)N)c2)cc1OCCCC(C)C` next 3.47

Query `COc1ccc(NC(=O)NCc2ccnc3c2ccn3CCCN(C)C)cc1OCCCC(C)C` next 1.92

Query COc1ccc(OCCCC(C)C)cc1NC(=O)NC(CO)c1ccccc1 (stereo not shown) next 2.92

Query `COc1cc(CNC(=O)C(C)(C)C)c(NC(=O)NCc2ccnc3[nH]ccc23)cc1OCCCC(C)C` next 2.46

Query COc1ccc(NC(=O)NC(CO)c2cc(NC(C)=O)ccc2OC)cc1OCCCC(C)C (stereo not shown) next 2.25

Query `COc1ccc(NC(=O)NCc2ccnc3c2ccn3CCCN)cc1OCCCC(C)C` next 2.11

Query `COc1ccc(NC(=O)NCc2cccc3c2ccn3CC(=O)N(C)C)cc1OCCCC(C)C` next 2.10

Query `COc1ccc(NC(=O)NCc2ccnc3c2ccn3CC2=NCCCN2)cc1OCCCC(C)C` next 2.08

Query `COc1cc(CC(N)=O)c(NC(=O)N[C@@H](CO)c2ccccc2)cc1OCCCC(C)C` next 3.14

----------
Biological target: Human C5 (Homo sapiens, UniProt P01031)
Construct: purchased Complement Technology
Assay: Red blood cell (RBC) hemolysis assay, luminescent (Example 13, Table 22); note: 1.5% C5-depleted human serum
Type: cell-based
Conditions: sheep EA cells, […] C5-depleted human serum, 0.5 nM human C5, 1 hour 37° C., luminescence
// NB: equality with 30 nM counts as -1; only IC50 strictly below is 1

Please let me know if `COc1ccccc1CN1CCCN(c2ccc(OC)c(OCCCC(C)(F)F)c2)C1=O` shows IC50 below 30 nM. 1

Query `CCCCCOc1cc(N2CCCN(Cc3ccc(CC(=O)NC4CCN(C(C)C)CC4)cc3Cl)C2=O)ccc1OC` next 1

Query `CCCCCOc1cc(N2CCCN(Cc3ccc(CC(=O)N4CCOCC4)cc3Cl)C2=O)ccc1OC` next 1

Query CCCCCOc1cc(N2CCCN(Cc3cccc4c3ccn4CC(=O)N3CCOC(COC)C3)C2=O)ccc1OC (centres unmarked) next 1

Query CCC(F)(F)CCOc1cc(N2CCCN(Cc3ccc(CC(=O)N4CCOC(CN(C)C)C4)cc3OC)C2=O)ccc1OC (centres unmarked) next 1

Query `CCCCCOc1cc(N2CCCN(Cc3ccnc4c3ccn4CC(=O)N3CCCOCC3)C2=O)ccc1C1CC1` next -1

Query `CCCCCOc1cc(N2CCN(Cc3cccc4c3OCO4)C2=O)ccc1OC` next -1

Query `CCCCCOc1cc(N2CCCN(Cc3ccccc3Cl)C2=O)ccc1OC` next -1

----------
Please provide measured solubility kinetic for the entries that follow.
Assay: Kinetic solubility in PBS pH 7.4, HPLC-UV (Example 21, Table 27)
Format: physicochemical
Conditions: phosphate buffered saline, aqueous buffer, kinetic from dmso stock, 0.5 M PBS, shaken minimum 24 h at approximately 25° C., HPLC-UV 270 nm
Please state the number and follow it with the unit.

Which solubility kinetic value is on record for `CCCCCOc1cc(N2CCCN(Cc3ccnc4c3c(Cl)cn4CC(=O)N3CCO[C@H](CN(C)C)C3)C2=O)ccc1OC` ? 294 µM

Query `CCCCCOc1cc(N2CCCN(Cc3ccnc4c3c(Cl)cn4CC(=O)NC(C)C)C2=O)ccc1OC` next 12 µM

Query `COc1cc(CC(=O)N(C)C)ccc1CN1CCCN(c2ccc(OC)c(OCCCC(C)(F)F)c2)C1=O` next 404 µM

Query `CCCCCOc1cc(N2CC[C@H](C)N(Cc3cccc4c3ccn4CC(=O)N(C)c3cccnc3)C2=O)ccc1OC` next 43 µM

----------
Molecular target: purified human C5 (Homo sapiens, UniProt P01031)
Test: Red blood cell hemolysis assay, optical, absorbance 412 nm (Example 3, Table 6)
Format: cell-based
Settings: antibody-sensitized sheep erythrocytes, 1.5% human C5 depleted sera, 0.5 nM human C5; average where replicates
Please provide measured pIC50 for the entries that follow.
Reminder that pIC50 is minus the log10 of a molar concentration.

GET /values?readout=pIC50&system=purified human C5 (Homo sapiens, UniProt P01031)&item= COc1ccc(CNC(=O)Nc2ccc(OC)c(OCCCC(C)C)c2)cc1 [SM0041] 5.75

Query C=C(NC(=O)Nc1ccc(OC)c(OCCCC(C)C)c1)c1ccccc1 [SM0061] next 5.30

Query COc1ccc(NC(=O)NCc2cccc(S(C)(=O)=O)c2)cc1OCCCC(C)C [SM0079] next 4.90

Query COc1ccc(NC(=O)N(CCO)c2ccccc2)cc1OCCCC(C)C [SM0057] next 5.39

Query COc1ccc(NC(=O)N[C@@H](CO)c2ccccc2)cc1C(F)(F)F [SM0073] next 5.03

----------
Molecular target: human C5 complement protein (Homo sapiens, UniProt P01031)
Test: Surface plasmon resonance (SPR), immobilized human C5, 37° C. (Example 12, Table 21)
Assay type: binding
Details: where a range of compound concentrations were analyzed, the lowest value obtained
Please provide measured Kd for the entries that follow.
Give just the numeric value; nM need not be written.

Which Kd value is on record for CCCCCOc1cc(N2CCCN(Cc3cccc4c3c(F)cn4CC(=O)N(C)C)C2=O)ccc1OC [CU0232] ? 1.3

Query CCCCCOc1cc(N2CCCN(Cc3ccnc4c3ccn4CC(=O)N3CCOC(C)(COC)C3)C2=O)ccc1OC (centres unmarked) [CU0049] next 21

Query CCCCCOc1cc(N2CCCN(Cc3ccc(CC(=O)NC4CCN(C(C)=O)C4)cc3OC)C2=O)ccc1OC (centres unmarked) [CU0110] next 2

Query CCCCCOc1cc(N2CCCN(Cc3ccc(CC(=O)N[C@H]4CN(C)C[C@H]4F)cc3OC)C2=O)ccc1OC [CU0106] next 2

Query CCCCCOc1cc(N2CCN(Cc3cccc(F)c3Cl)C2=O)ccc1OC [CU0011] next 816

Query CCCCCOc1cc(N2CCCN(Cc3ccnc4c3ccn4CC(=O)N3CCN(C)C(=O)C3)C2=O)ccc1OC [CU0060] next 14

Query CCCCCOc1cc(N2CCCN(Cc3cc(F)ccc3OC)C2=O)ccc1OC [CU0003] next 14

Query CCCCCOc1cc(N2CCCN(Cc3cccc4c3ccn4Cc3nncn3C)C2=O)ccc1OC [CU0024] next 5
